- Test system: Crude diglycosidase
- PROTOCOL_NOTES: Examination of temperature in the conversion into isoflavone aglycons by diglycosidase using soybean materials
- Assay type: biochemical, Penicillium multicolor IAM7153
- Parameters: concentration or dose not given beside the values
- TEST_CONDITIONS: 80° C., heat treatment of enzyme no, reaction time 3 h
OBSERVATION_TYPE: Decomposition efficiency of glycitin family in defatted soybean (%)

Query :: Field request: Decomposition efficiency of glycitin family in defatted soybean | item: "COc1cc2c(=O)c(-c3ccc(O)cc3)coc2cc1O[C@@H]1O[C@H](COC(=O)CC(=O)O)[C@@H](O)[C@H](O)[C@H]1O"
Result :: 45.0

Query :: Field request: Decomposition efficiency of glycitin family in defatted soybean | item: "COc1cc2c(=O)c(-c3ccc(O)cc3)coc2cc1O"
Result :: 55.0

* * *

- Test system: Crude diglycosidase
- PROTOCOL_NOTES: Examination of substrate concentration in the conversion into isoflavone aglycons by diglycosidase using soybean materials;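 note: percent of the isoflavone family total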
- Format: biochemical, Penicillium multicolor IAM7153
- TEST_CONDITIONS: roasted soy flour, substrate concentration 2%, heat treatment of enzyme no, reaction time 3 h
OBSERVATION_TYPE: Decomposition efficiency: ratio of each glycoside/aglycon within its isoflavone family

Query :: Field request: Decomposition efficiency: ratio of each glycoside/aglycon within its isoflavone family | item: "CC(=O)OC[C@H]1O[C@@H](Oc2cc(O)c3c(=O)c(-c4ccc(O)cc4)coc3c2)[C@H](O)[C@@H](O)[C@@H]1O"
Result :: 5.0%

Query :: Field request: Decomposition efficiency: ratio of each glycoside/aglycon within its isoflavone family | item: "O=c1c(-c2ccc(O)cc2)coc2cc(O[C@@H]3O[C@H](CO)[C@@H](O)[C@H](O)[C@H]3O)ccc12"
Result :: not detected

Query :: Field request: Decomposition efficiency: ratio of each glycoside/aglycon within its isoflavone family | item: "O=C(O)CC(=O)OC[C@H]1O[C@@H](Oc2ccc3c(=O)c(-c4ccc(O)cc4)coc3c2)[C@H](O)[C@@H](O)[C@@H]1O"
Result :: not detected

* * *

- Test system: Crude diglycosidase
- PROTOCOL_NOTES: Examination of pH in the conversion into isoflavone aglycons by diglycosidase using soybean materials
- Format: biochemical, Penicillium multicolor IAM7153
- TEST_CONDITIONS: pH5.1; heat treatment of enzyme: no; reaction time 0 h
OBSERVATION_TYPE: Decomposition efficiency of glycitin family in concentrated soybean protein (%)

Here is how some molecules turned out for Decomposition efficiency of glycitin family in concentrated soybean protein.
Query :: Field request: Decomposition efficiency of glycitin family in concentrated soybean protein | item: COc1cc2c(=O)c(-c3ccc(O)cc3)coc2cc1O[C@@H]1O[C@H](COC(=O)CC(=O)O)[C@@H](O)[C@H](O)[C@H]1O [malonylglycitin, 6″-O-malonylglycitin]
Result :: 0.4

Query :: Field request: Decomposition efficiency of glycitin family in concentrated soybean protein | item: COc1cc2c(=O)c(-c3ccc(O)cc3)coc2cc1O[C@@H]1O[C@H](COC(C)=O)[C@@H](O)[C@H](O)[C@H]1O [acetylglycitin, 6″-O-acetylglycitin]
Result :: 36.1

(A) COc1cc2c(=O)c(-c3ccc(O)cc3)coc2cc1O [glycitein]
(B) COc1cc2c(=O)c(-c3ccc(O)cc3)coc2cc1O[C@@H]1O[C@H](CO)[C@@H](O)[C@H](O)[C@H]1O [glycitin]
Query :: A or B : whose Decomposition efficiency of glycitin family in concentrated soybean protein is greater? Refer to your chosen item by its label in the answer.
Result :: B

* * *

- System: Crude diglycosidase
- PROTOCOL_NOTES: Examination of substrate concentration in the conversion into isoflavone aglycons by diglycosidase using soybean materials;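 note: percent of the isoflavone family total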
- Format: biochemical, Penicillium multicolor IAM7153
- TEST_CONDITIONS: roasted soy flour, substrate concentration 5%, heat treatment of enzyme no, reaction time 0 h
OBSERVATION_TYPE: Decomposition efficiency: ratio of each glycoside/aglycon within its isoflavone family (%)

Query :: Field request: Decomposition efficiency: ratio of each glycoside/aglycon within its isoflavone family | item: O=c1c(-c2ccc(O)cc2)coc2cc(O[C@@H]3O[C@H](CO)[C@@H](O)[C@H](O)[C@H]3O)cc(O)c12 [genistin]
Result :: 47.8

Query :: Field request: Decomposition efficiency: ratio of each glycoside/aglycon within its isoflavone family | item: COc1cc2c(=O)c(-c3ccc(O)cc3)coc2cc1O[C@@H]1O[C@H](CO)[C@@H](O)[C@H](O)[C@H]1O [glycitin]
Result :: 54.8

Query :: Field request: Decomposition efficiency: ratio of each glycoside/aglycon within its isoflavone family | item: COc1cc2c(=O)c(-c3ccc(O)cc3)coc2cc1O[C@@H]1O[C@H](COC(C)=O)[C@@H](O)[C@H](O)[C@H]1O [acetylglycitin, 6″-O-acetylglycitin]
Result :: 33.8

Query :: Field request: Decomposition efficiency: ratio of each glycoside/aglycon within its isoflavone family | item: CC(=O)OC[C@H]1O[C@@H](Oc2cc(O)c3c(=O)c(-c4ccc(O)cc4)coc3c2)[C@H](O)[C@@H](O)[C@@H]1O [acetylgenistin, 6″-O-acetylgenistin]
Result :: 44.7

* * *

- Test system: β-Xylosidase derived from pectinase G
- PROTOCOL_NOTES: Reactivity toward various isoflavone glycosides (HPLC)
- Assay type: biochemical
- Design: unit not given here
- TEST_CONDITIONS: Reaction time 1 h; 55 °C, pH 4.0
OBSERVATION_TYPE: aglycon

Here is how some molecules turned out for aglycon.
Query :: Field request: aglycon | item: "O=C(O)CC(=O)OC[C@H]1O[C@@H](Oc2ccc3c(=O)c(-c4ccc(O)cc4)coc3c2)[C@H](O)[C@@H](O)[C@@H]1O"
Result :: 0.4

Query :: Field request: aglycon | item: "CC(=O)OC[C@H]1O[C@@H](Oc2ccc3c(=O)c(-c4ccc(O)cc4)coc3c2)[C@H](O)[C@@H](O)[C@@H]1O"
Result :: 9.7

Query :: Field request: aglycon | item: "CC(=O)OC[C@H]1O[C@@H](Oc2cc(O)c3c(=O)c(-c4ccc(O)cc4)coc3c2)[C@H](O)[C@@H](O)[C@@H]1O"
Result :: 0

Query :: Field request: aglycon | item: "O=c1c(-c2ccc(O)cc2)coc2cc(O[C@@H]3O[C@H](CO)[C@@H](O)[C@H](O)[C@H]3O)ccc12"
Result :: 9.1

(1) COc1cc2c(=O)c(-c3ccc(O)cc3)coc2cc1O[C@@H]1O[C@H](CO)[C@@H](O)[C@H](O)[C@H]1O
(2) O=C(O)CC(=O)OC[C@H]1O[C@@H](Oc2cc(O)c3c(=O)c(-c4ccc(O)cc4)coc3c2)[C@H](O)[C@@H](O)[C@@H]1O
Query :: Which has the smaller recorded aglycon, 1 or 2 ? Refer to your chosen item by its label in the answer.
Result :: 2
(2: 0, 1: 0.8)

* * *

- System: Crude diglycosidase
- PROTOCOL_NOTES: Examination of temperature in the conversion into isoflavone aglycons by diglycosidase using soybean materials
- Assay type: biochemical, Penicillium multicolor IAM7153
- Set-up: concentration or dose not given beside the values
- TEST_CONDITIONS: 45 °C; heat treatment of enzyme: no; 3 h
OBSERVATION_TYPE: Decomposition efficiency of glycitin family in roasted soy flour (%)

(a) COc1cc2c(=O)c(-c3ccc(O)cc3)coc2cc1O[C@@H]1O[C@H](COC(C)=O)[C@@H](O)[C@H](O)[C@H]1O
(b) COc1cc2c(=O)c(-c3ccc(O)cc3)coc2cc1O[C@@H]1O[C@H](CO)[C@@H](O)[C@H](O)[C@H]1O
(c) COc1cc2c(=O)c(-c3ccc(O)cc3)coc2cc1O
Query :: Please put the 3 compounds above in a list ordered by falling Decomposition efficiency of glycitin family in roasted soy flour. Labels, requested order.
Result :: c, a, b
(c: 67.4%, a: 20.3%, b: 12.4%)

* * *

- Tested on: Crude diglycosidase
- PROTOCOL_NOTES: Examination of pH in the conversion into isoflavone aglycons by diglycosidase using soybean materials
- Assay type: biochemical, Penicillium multicolor IAM7153
- TEST_CONDITIONS: pH5.1; heat treatment of enzyme: no; reaction time 3 h
OBSERVATION_TYPE: Decomposition efficiency of glycitin family in concentrated soybean protein (%)

(I) COc1cc2c(=O)c(-c3ccc(O)cc3)coc2cc1O [glycitein]
(II) COc1cc2c(=O)c(-c3ccc(O)cc3)coc2cc1O[C@@H]1O[C@H](COC(=O)CC(=O)O)[C@@H](O)[C@H](O)[C@H]1O [malonylglycitin, 6″-O-malonylglycitin]
(III) COc1cc2c(=O)c(-c3ccc(O)cc3)coc2cc1O[C@@H]1O[C@H](COC(C)=O)[C@@H](O)[C@H](O)[C@H]1O [acetylglycitin, 6″-O-acetylglycitin]
Query :: Sort low-to-high on Decomposition efficiency of glycitin family in concentrated soybean protein, please. Labels, requested order.
Result :: II, III, I

* * *

- System: Crude diglycosidase
- PROTOCOL_NOTES: Examination of substrate concentration in the conversion into isoflavone aglycons by diglycosidase using soybean materials;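 note: percent of the isoflavone family total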
- Type: biochemical, Penicillium multicolor IAM7153
- TEST_CONDITIONS: concentrated soybean protein, substrate concentration 30%, heat treatment of enzyme no, reaction time 1 h
OBSERVATION_TYPE: Decomposition efficiency: ratio of each glycoside/aglycon within its isoflavone family (%)

Query :: Under Crude diglycosidase: Decomposition efficiency: ratio of each glycoside/aglycon within its isoflavone family value of "COc1cc2c(=O)c(-c3ccc(O)cc3)coc2cc1O[C@@H]1O[C@H](CO)[C@@H](O)[C@H](O)[C@H]1O" ?
Result :: 2.0

Query :: Under Crude diglycosidase: Decomposition efficiency: ratio of each glycoside/aglycon within its isoflavone family value of "COc1cc2c(=O)c(-c3ccc(O)cc3)coc2cc1O[C@@H]1O[C@H](COC(C)=O)[C@@H](O)[C@H](O)[C@H]1O" ?
Result :: 35.9

(1) O=c1c(-c2ccc(O)cc2)coc2cc(O[C@@H]3O[C@H](CO)[C@@H](O)[C@H](O)[C@H]3O)cc(O)c12
(2) CC(=O)OC[C@H]1O[C@@H](Oc2cc(O)c3c(=O)c(-c4ccc(O)cc4)coc3c2)[C@H](O)[C@@H](O)[C@@H]1O
Query :: 1 or 2 : whose Decomposition efficiency: ratio of each glycoside/aglycon within its isoflavone family is greater? Refer to your chosen item by its label in the answer.
Result :: 2
(2: 65.3%, 1: 2.8%)

Every entry's value here was drawn from patent US7118895B2.
